- Measured Target: Rhesus/Macaque TNF (Rhesus/Macaque, UniProt P48094 77-233)
- Sequence (P48094 77-233 limits assumed): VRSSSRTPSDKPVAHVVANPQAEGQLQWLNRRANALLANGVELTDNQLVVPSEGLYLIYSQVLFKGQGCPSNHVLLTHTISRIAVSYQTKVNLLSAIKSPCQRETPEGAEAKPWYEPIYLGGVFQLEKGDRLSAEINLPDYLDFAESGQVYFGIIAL
- Measurement Protocol: cell-based or functional assay
Reported Metric: rhesus TNF neutralization IC50 (nM)
Give the value in nM but do not write nM after it.

Before answering, review these 4 worked examples.
- Binder: "AE11-5 AM1 (antibody, V domains shown, Full length IgG converted from scFv clone J703M1S3#2; Heavy chain plasmid is pHybE-hCg1,z,non-a,mut(234,235), i.e. human IgG1 with mutations at 234 and 235; Light chain plasmid is pHybE-hCk, i.e. human kappa; also called J703M1S3#2) VH: EVQLVQSGAEVKKPGSSVKVSCKASGGTFSWYATSWVRQAPGQGLEWMGGITPILGSPIYAQKFQGRVTITADESTSTVYMELSSLRSEDTAVYYCARGVYYDHRRADYWGQGTLVTVSS VL: EIVLTQSPDFQSVTPKEKVTITCRASQSIGNTLHWYQQKPDQSPKLLIKHVSQSVSGVPSRFSGSGSGTDFTLTINSLEAEDAATYYCHQKVSSPSPTFGQGTKVEIK"
  Readout Unit: "nM"
  rhesus TNF neutralization IC50: 0.251
- Binder: "AE11-5 AM4 (antibody, V domains shown, Full length IgG converted from scFv clone J703M1S3#30; Human IgG1 (hCg1,z,non-a,mut(234,235)) with human kappa; also called J703M1S3#30) VH: EVQLVQSGAEVKKPGSSVKVSCKASGGTFSWYAISWVRQAPGQGLEWMGGITPILGSPIYAQKFQGRVTITADESTSTVYMELSSLRSEDTAVYYCARGVYYDPKRADYWGQGTLVTVSS VL: EIVLTQSPDFQSVTPKEKVTITCRASQRIGSSLHWYQQKPDQSPKLLIKHASQSVSGVPSRFSGSGSGTDFTLTINSLEAEDAATYYCHQSRSSPPPTFGQGTKVEIK"
  Readout Unit: "nM"
  rhesus TNF neutralization IC50: 0.109
- Binder: "AE11-5 AM6 (antibody, V domains shown, Full length IgG converted from scFv clone J703M1S3#35; Human IgG1 (hCg1,z,non-a,mut(234,235)) with human kappa; also called J703M1S3#35) VH: EVQLVQSGAEVKKPGSSVKVSCKASGGTFSWYAISWVRQAPGQGLEWMGGITPILGSATYAQKFQGRVTITADESTSTVYMELSSLRSEDTAVYYCARGIYYDPKRADYWGQGTLVTVSS VL: EIVLTQSPDFQSVTPKEKVTITCRASQTIGSSLHWYQQKPDQSPKLLIKHASQSISGVPSRFSGSGSGTDFTLTINSLEAEDAATYYCHQTSSLPTPTFGQGTKVEIK"
  Readout Unit: "nM"
  rhesus TNF neutralization IC50: 0.652
- Binder: "AE11-5 AM5 (antibody, V domains shown, Full length IgG converted from scFv clone J703M1S3#33; Human IgG1 (hCg1,z,non-a,mut(234,235)) with human kappa; also called J703M1S3#33) VH: EVQLVQSGAEVKKPGSSVKVSCKASGGTFSWYPISWVRQAPGQGLEWMGGITPILGAGIYAQKFQGRVTITADESTSTVYMELSSLRSEDTAVYYCARGVYYDFKRADYWGQGTLVTVSS VL: EIVLTQSPDFQSVTPKEKVTITCRASQSIGSSLHWYQQKPDQSPKLLIKHASQSTSGVPSRFSGSGSGTDFTLTINSLEAEDAATYYCHQSSSSPPSTFGQGTKVEIK"
  Readout Unit: "nM"
  rhesus TNF neutralization IC50: 0.613

Proceeding to the next binder to report its rhesus TNF neutralization IC50.
Noted for AE11-5 AM10 (antibody, V domains shown, Full length IgG converted from scFv clone J703M1S3#90; Human IgG1 (hCg1,z,non-a,mut(234,235)) with human kappa; also called J703M1S3#90) VH: EVQLVQSGAEVKKPGSSVKVSCKASGGTFSWYAISWVRQAPGQGLEWMGGITPILGSPIYAQKFQGRVTITADESTSTVYMELSSLRSEDTAVYYCARGVYYDYKRADYWGQGTLVTVSS VL: EIVLTQSPDFQSVTPKEKVTITCRASQSIGSNLHWYQQKPDQSPKLLIKHASQSISGVPSRFSGSGSGTDFTLTINSLEAEDAATYYCHQTRTSPPLTFGQGTKVEIK : its rhesus TNF neutralization IC50 reads 0.14
